- system.name: SARM1 (Homo sapiens, UniProt Q6SZW1)
- Construct: the inventor produces full-length SARM1 for NADase activity assays and for screening; His (C); digitonin lysate supernatant, not purified further)
- Sequence (Q6SZW1 28-724): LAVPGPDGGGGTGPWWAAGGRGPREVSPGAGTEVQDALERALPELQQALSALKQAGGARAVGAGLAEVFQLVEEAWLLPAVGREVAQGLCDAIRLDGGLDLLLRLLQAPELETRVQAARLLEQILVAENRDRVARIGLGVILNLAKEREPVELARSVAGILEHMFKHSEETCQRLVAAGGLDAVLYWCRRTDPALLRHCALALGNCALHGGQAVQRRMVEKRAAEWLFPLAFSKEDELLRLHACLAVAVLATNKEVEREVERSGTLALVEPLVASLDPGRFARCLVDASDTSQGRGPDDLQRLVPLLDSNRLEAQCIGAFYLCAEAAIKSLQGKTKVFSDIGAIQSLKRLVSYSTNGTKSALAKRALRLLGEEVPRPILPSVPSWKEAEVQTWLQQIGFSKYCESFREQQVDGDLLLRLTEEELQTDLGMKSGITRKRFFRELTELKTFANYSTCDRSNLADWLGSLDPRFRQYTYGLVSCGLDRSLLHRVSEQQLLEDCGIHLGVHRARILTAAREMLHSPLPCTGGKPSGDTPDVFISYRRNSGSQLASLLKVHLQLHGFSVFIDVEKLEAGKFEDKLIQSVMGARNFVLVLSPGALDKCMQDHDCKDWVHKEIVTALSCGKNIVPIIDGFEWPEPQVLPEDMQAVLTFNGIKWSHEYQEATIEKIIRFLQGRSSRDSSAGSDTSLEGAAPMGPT
- procedure.summary: In vitro biochemical assay for inhibiting SARM1 enzymatic activity (PC6 fluorescence, NAD substrate, NMN activator)
- test.settings: 0.05 µg/mL SARM1, 50 µM NAD, 50 µM PC6, 50 µM NMN, 10 min pre-incubation, 30 min at room temperature
result.type: IC50

compound="C#Cc1ccc(CC2CCN(c3ccc(-c4ccncc4)cc3)C2=O)cc1 (centres unmarked)" result="10 to 30 µM"
compound="O=C1C(Cc2ccc(Cl)cc2)CCN1c1ccc(-c2ccncc2)cc1 (centres unmarked)" result="< 1 µM"
compound="O=C1C(Cc2ccc(Cl)s2)CCN1c1ccc(-c2ccncc2)nn1 (centres unmarked)" result="< 1 µM"
compound="O=C1C(Cc2ccc(Cl)cn2)CCN1c1ccc(-c2ccncc2)cc1 (centres unmarked)" result="10 to 30 µM"
compound="O=C1C(Cc2ccc(Cl)cc2)CCN1c1ccc(-c2ccncc2Cl)nn1 (centres unmarked)" result="< 1 µM"
